Reference source: the supplement of paper PMC10307832

Test system: NCI-H1623
Assay: relative viability (nuclei count vs DMSO), 5 days (fraction); higher = more cells survive
Details: first compound 0.8 µM
For each record, check the reported relative viability: if it is below 0.5 write yes, else write no.

Solved entries:
MOLECULE	ASSIGNED CLASS
Cc1cnc(-c2cnc(NCCNc3ccc(C#N)cn3)nc2-c2ccc(Cl)cc2Cl)[nH]1 + Cc1nc(Nc2ncc(C(=O)Nc3c(C)cccc3Cl)s2)cc(N2CCN(CCO)CC2)n1 [Dasatinib] (partner 0.075 µM)	yes
O=c1[nH]c2ccccc2n1C1CCN(CCCC(c2ccc(F)cc2)c2ccc(F)cc2)CC1 [Pimozide] + Cc1nc(Nc2ncc(C(=O)Nc3c(C)cccc3Cl)s2)cc(N2CCN(CCO)CC2)n1 [Dasatinib] (partner 0.075 µM)	no
Cc1cnc(-c2cnc(NCCNc3ccc(C#N)cn3)nc2-c2ccc(Cl)cc2Cl)[nH]1 + COc1cc2c(Oc3ccc(NC(=O)C4(C(=O)Nc5ccc(F)cc5)CC4)cc3F)ccnc2cc1OCCCN1CCOCC1 [Foretinib] (partner 0.25 µM)	no
Cc1cnc(-c2cnc(NCCNc3ccc(C#N)cn3)nc2-c2ccc(Cl)cc2Cl)[nH]1 + N=C(N)NC(=N)NCCc1ccccc1 [Phenformin] (partner 250 µM)	no

Task: Consider Cc1cnc(-c2cnc(NCCNc3ccc(C#N)cn3)nc2-c2ccc(Cl)cc2Cl)[nH]1 + CCNC(=O)c1noc(-c2cc(C(C)C)c(O)cc2O)c1-c1ccc(CN2CCOCC2)cc1 [Luminespib] (partner 0.01 µM) . Does its relative viability lie strictly below 0.5?
Result: no
